# TARGET OR SYSTEM: Sodium channel protein type 9 subunit alpha (Rattus norvegicus, UniProt O08562)
# Sequence (O08562 whole entry): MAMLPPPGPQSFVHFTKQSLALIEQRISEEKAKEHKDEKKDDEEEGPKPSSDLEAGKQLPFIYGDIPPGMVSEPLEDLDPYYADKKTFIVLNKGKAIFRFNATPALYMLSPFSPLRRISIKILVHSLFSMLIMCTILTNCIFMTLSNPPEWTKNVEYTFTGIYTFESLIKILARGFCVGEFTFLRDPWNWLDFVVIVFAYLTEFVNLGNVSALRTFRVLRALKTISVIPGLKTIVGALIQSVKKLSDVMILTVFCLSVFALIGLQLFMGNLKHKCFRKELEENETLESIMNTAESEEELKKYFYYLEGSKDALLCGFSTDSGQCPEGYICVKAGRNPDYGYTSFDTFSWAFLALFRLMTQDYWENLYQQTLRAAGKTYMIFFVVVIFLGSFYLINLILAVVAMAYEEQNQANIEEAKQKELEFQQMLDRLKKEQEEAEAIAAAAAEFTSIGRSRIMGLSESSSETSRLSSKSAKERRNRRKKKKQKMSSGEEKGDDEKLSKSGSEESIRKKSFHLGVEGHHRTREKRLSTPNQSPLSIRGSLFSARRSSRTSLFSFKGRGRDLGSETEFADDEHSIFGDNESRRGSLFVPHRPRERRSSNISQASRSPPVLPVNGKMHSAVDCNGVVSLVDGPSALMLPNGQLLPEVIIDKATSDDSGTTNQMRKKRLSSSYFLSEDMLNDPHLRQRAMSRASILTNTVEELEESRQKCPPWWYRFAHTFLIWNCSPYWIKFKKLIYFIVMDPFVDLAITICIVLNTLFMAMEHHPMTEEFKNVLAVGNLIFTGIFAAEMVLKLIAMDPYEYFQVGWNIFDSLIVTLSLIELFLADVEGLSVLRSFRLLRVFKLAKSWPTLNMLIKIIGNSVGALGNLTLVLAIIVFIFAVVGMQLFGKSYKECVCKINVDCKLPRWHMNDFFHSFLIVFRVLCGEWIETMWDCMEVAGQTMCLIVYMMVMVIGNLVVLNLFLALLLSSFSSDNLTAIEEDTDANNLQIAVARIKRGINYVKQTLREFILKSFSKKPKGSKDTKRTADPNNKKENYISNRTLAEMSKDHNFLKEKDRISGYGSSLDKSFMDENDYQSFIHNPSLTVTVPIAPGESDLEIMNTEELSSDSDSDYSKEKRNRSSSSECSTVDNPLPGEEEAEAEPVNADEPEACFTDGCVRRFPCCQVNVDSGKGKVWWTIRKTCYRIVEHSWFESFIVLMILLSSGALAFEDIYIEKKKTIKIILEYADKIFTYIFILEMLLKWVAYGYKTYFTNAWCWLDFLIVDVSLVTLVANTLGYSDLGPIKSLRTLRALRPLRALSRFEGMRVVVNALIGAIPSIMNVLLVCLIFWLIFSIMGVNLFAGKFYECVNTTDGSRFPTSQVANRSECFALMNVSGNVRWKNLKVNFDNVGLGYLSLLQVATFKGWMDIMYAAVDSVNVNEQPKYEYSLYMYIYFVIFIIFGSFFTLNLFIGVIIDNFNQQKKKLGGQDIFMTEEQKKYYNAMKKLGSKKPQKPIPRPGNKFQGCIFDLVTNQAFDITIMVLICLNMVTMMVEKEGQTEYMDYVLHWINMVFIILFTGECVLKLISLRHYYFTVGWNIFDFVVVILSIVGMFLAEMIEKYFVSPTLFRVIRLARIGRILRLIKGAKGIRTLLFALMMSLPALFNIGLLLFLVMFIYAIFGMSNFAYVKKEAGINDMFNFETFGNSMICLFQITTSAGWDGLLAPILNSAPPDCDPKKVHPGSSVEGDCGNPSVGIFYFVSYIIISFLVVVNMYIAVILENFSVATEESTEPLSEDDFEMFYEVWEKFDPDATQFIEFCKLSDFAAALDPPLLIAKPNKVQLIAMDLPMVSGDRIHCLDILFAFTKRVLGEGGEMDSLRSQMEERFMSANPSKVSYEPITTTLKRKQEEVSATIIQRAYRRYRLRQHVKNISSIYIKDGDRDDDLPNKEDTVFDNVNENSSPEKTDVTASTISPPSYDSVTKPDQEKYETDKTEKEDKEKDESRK
# ASSAY PROTOCOL: Inhibition of rat Nav1.7 expressed in HEK293T cells incubated for 3 to 5 mins at -125 mV holding potential by electrophysiology assay
ASSAY METRIC: IC50 (µM)
Field format: number, assumed µM, no unit text.

In: What value of measured IC50 is listed for COc1cc(C(=O)NS(C)(=O)=O)c(F)cc1-c1cnc(Oc2cc(F)ccc2F)c(Cl)c1 ?
Out: 3.69

###

# ASSAY PROTOCOL: Apparent passive permeability in MDCK cells at 5 uM after 120 mins by LC/MS/MS analysis
# Format: ADME, cell-based, Canis lupus familiaris
# CONDITIONS USED: dog
ASSAY METRIC: Papp at 2 h, 5 µM

In: What value of measured Papp at 2 h, 5 µM is listed for COc1cc(C(=O)NS(C)(=O)=O)c(F)cc1-c1cnc(Oc2cc(F)ccc2F)c(Cl)c1 ?
Out: 22.4 ×10⁻⁶ cm/s

###

# ASSAY PROTOCOL: Half life in Harlan rat at 1 mg/kg, iv by LC-MS/MS analysis
# Type: ADME, organism-based
# CONDITIONS USED: in vivo
ASSAY METRIC: half-life (h)
Field format: number, assumed h, no unit text.

In: What value of measured half-life is listed for COc1cc(C(=O)NS(C)(=O)=O)c(F)cc1-c1cnc(Oc2cc(F)ccc2F)c(Cl)c1 ?
Out: 1.84

###

# TARGET OR SYSTEM: Sodium channel protein type 9 subunit alpha (Homo sapiens)
# ASSAY PROTOCOL: Inhibition of human Nav1.7 at 20% inactivated state expressed in HEK293 cells at -140 mV holding potential followed by channel inactivation by manual whole cell patch clamp electrophysiology assay
# Assay type: cell-based
ASSAY METRIC: pIC50
Recall that pIC50 is obtained by taking minus log10 of the concentration measured in molar.

In: What value of measured pIC50 is listed for COc1cc(C(=O)NS(C)(=O)=O)c(F)cc1-c1cnc(Oc2cc(F)ccc2F)c(Cl)c1 ?
Out: 7.29

###

The reader will find pIC50 measurements below, all made with Cytochrome P450 2C9 (Homo sapiens, UniProt P11712).
Sequence (P11712 whole entry): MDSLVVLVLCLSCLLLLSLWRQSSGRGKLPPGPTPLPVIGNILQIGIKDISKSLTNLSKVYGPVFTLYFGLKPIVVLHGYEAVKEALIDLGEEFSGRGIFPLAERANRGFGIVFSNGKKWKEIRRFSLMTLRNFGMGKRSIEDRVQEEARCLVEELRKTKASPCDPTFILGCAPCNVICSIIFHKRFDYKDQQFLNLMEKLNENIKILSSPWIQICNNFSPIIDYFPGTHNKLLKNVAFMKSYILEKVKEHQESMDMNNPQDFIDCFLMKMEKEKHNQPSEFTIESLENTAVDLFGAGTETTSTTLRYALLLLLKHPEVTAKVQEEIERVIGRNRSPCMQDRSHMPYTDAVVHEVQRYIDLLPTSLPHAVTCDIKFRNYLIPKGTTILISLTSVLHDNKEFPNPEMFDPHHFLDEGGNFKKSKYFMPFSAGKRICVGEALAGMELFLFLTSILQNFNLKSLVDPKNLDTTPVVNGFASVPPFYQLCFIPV
Recall that pIC50 is obtained by taking minus log10 of the concentration measured in molar.

In: What value of measured pIC50 is listed for COc1cc(C(=O)NS(C)(=O)=O)c(F)cc1-c1cnc(Oc2cc(F)ccc2F)c(Cl)c1 ?
Out: 4.34

In: What value of measured pIC50 is listed for CC(C)COc1ncc(-c2cc(F)c(C(=O)NS(C)(=O)=O)cc2F)cc1Cl ?
Out: 4.47

###

# TARGET OR SYSTEM: Sodium channel protein type 9 subunit alpha (Mus musculus, UniProt Q62205)
# ASSAY PROTOCOL: Inhibition of Nav1.7 in C57BL/6 mouse DRG neurons assessed as reduction in native TTX-S current amplitude by manual patch clamp electrophysiology assay
ASSAY METRIC: IC50

In: Enter reported IC50 observed with Sodium channel protein type 9 subunit alpha (Mus musculus, UniProt Q62205) for COc1cc(C(=O)NS(C)(=O)=O)c(F)cc1-c1cnc(Oc2cc(F)ccc2F)c(Cl)c1
Out: 270 nM

###

The entries below are paired with their reported pIC50.
# TARGET OR SYSTEM: Sodium channel protein type 5 subunit alpha (Homo sapiens, UniProt Q14524)
# Sequence (Q14524 whole entry): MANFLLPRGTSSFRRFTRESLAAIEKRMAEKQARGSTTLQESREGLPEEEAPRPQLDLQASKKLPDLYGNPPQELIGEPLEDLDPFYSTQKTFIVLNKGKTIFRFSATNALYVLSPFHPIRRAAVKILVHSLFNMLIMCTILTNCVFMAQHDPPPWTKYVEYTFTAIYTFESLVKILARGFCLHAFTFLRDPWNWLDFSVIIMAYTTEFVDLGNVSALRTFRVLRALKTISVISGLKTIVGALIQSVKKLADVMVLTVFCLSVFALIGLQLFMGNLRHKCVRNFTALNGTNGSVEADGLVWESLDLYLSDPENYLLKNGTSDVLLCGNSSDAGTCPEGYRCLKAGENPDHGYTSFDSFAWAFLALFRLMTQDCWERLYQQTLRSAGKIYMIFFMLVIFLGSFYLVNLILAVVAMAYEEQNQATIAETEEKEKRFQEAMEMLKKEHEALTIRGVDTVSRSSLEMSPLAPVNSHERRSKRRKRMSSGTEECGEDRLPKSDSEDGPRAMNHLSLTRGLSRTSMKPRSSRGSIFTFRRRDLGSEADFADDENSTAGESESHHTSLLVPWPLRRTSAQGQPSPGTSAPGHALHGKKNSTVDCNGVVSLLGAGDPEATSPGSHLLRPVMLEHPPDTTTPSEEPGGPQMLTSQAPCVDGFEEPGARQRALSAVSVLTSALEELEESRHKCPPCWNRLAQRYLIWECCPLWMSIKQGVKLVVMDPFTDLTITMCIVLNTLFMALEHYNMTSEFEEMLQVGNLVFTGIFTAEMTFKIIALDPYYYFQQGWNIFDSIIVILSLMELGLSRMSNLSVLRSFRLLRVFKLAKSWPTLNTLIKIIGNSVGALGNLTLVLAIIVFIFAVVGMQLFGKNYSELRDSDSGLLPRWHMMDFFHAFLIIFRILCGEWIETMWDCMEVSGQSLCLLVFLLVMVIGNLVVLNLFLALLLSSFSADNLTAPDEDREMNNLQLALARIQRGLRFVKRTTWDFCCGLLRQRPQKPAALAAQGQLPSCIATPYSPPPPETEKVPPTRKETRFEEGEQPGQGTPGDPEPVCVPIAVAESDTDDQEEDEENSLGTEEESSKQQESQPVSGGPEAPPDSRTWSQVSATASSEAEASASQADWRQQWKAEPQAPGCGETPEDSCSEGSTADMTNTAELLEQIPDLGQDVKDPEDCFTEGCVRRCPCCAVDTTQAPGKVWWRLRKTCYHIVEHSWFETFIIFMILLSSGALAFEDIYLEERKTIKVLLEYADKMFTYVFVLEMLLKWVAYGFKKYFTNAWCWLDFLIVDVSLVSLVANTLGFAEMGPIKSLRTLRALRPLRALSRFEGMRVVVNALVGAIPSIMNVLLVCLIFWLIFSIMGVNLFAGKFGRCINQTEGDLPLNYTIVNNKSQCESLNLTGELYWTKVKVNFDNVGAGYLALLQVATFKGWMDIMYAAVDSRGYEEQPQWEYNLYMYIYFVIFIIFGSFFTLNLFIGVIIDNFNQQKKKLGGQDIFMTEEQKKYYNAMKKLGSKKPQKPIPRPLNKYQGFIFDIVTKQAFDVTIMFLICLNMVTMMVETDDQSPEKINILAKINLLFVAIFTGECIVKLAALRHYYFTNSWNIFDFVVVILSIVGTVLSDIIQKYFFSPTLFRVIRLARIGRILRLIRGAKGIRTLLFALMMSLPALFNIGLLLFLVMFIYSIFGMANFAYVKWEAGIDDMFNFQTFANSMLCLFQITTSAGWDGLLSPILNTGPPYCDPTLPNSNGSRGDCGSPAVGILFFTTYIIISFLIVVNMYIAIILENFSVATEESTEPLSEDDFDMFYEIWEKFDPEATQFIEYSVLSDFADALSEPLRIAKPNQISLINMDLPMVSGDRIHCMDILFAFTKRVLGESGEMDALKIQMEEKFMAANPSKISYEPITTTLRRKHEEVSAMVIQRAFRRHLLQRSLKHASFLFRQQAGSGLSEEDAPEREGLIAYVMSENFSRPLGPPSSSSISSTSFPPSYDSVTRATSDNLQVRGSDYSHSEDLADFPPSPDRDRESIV
# ASSAY PROTOCOL: Inhibition of human Nav1.5 expressed in HEK293 cells incubated for 3 to 5 mins at -50 mV holding potential by electrophysiology assay
Recall that pIC50 is obtained by taking minus log10 of the concentration measured in molar.

COc1cc(C(=O)NS(C)(=O)=O)ccc1-c1cnc(N2CCC[C@H]2C(C)C)c(Cl)c1: 5.60

In: What value of measured pIC50 is listed for CC(C)COc1ncc(-c2ccc(C(=O)NS(C)(=O)=O)cc2OC(F)(F)F)cc1Cl ?
Out: 5.43

In: What value of measured pIC50 is listed for O=S(=O)(Nc1ncns1)c1ccc2c(-c3ccc(C(F)(F)F)c(Cl)c3)nccc2c1 ?
Out: 4.57

In: What value of measured pIC50 is listed for COc1cc(C(=O)NS(C)(=O)=O)ccc1-c1cnc(Oc2cc(Cl)cc(Cl)c2)c(C(F)F)c1 ?
Out: 4.73

In: What value of measured pIC50 is listed for COc1cc(C(=O)NS(C)(=O)=O)ccc1-c1cnc(OCc2ccc(Cl)cc2)c(Cl)c1 ?
Out: 4.68

In: What value of measured pIC50 is listed for COc1cc(C(=O)NS(C)(=O)=O)ccc1-c1cnc(Oc2cc(Cl)cc(Cl)c2)c(Cl)c1 ?
Out: 5.22

###

# TARGET OR SYSTEM: Sodium channel protein type 9 subunit alpha (Homo sapiens)
# ASSAY PROTOCOL: Inhibition of human Nav1.7 expressed in HEK293 cells incubated for 3 to 5 mins at -125 mV holding potential by electrophysiology assay
# Assay type: cell-based
ASSAY METRIC: pIC50
Recall that pIC50 is obtained by taking minus log10 of the concentration measured in molar.

Past entries and their recorded results:
CC(C)COc1ncc(-c2cc(F)c(C(=O)NS(C)(=O)=O)cc2F)cc1Cl: 6.28
COc1cc(C(=O)NS(C)(=O)=O)ccc1-c1cnc(Oc2cc(Cl)cc(Cl)c2)c(C(F)(F)F)c1: 7.55
CC(C)COc1ncc(-c2ccc(C(=O)NS(C)(=O)=O)cc2C2=CCOC2)cc1Cl: 6.59
COc1cc(C(=O)NS(C)(=O)=O)c(F)cc1-c1cnc(Oc2cc(F)ccc2F)c(Cl)c1: 7.16

From here, focus on the item given below.
In: What value of measured pIC50 is listed for COc1cc(C(=O)NS(C)(=O)=O)ccc1-c1cnc(OCC(C)C)c(Cl)c1 ?
Out: 6.46

###

# ASSAY PROTOCOL: Plasma protein binding in Harlan rat at 1 mg/kg, iv by LC-MS/MS analysis
# Type: ADME, organism-based
# CONDITIONS USED: read-out: PPB (converted)
ASSAY METRIC: fraction unbound
Hey, just send me the number, nothing else.

In: What value of measured fraction unbound is listed for COc1cc(C(=O)NS(C)(=O)=O)c(F)cc1-c1cnc(Oc2cc(F)ccc2F)c(Cl)c1 ?
Out: 0.004

###

The reader will find IC50 measurements below, all made with Cytochrome P450 2D6 (Homo sapiens, UniProt P10635).
Sequence (P10635 whole entry): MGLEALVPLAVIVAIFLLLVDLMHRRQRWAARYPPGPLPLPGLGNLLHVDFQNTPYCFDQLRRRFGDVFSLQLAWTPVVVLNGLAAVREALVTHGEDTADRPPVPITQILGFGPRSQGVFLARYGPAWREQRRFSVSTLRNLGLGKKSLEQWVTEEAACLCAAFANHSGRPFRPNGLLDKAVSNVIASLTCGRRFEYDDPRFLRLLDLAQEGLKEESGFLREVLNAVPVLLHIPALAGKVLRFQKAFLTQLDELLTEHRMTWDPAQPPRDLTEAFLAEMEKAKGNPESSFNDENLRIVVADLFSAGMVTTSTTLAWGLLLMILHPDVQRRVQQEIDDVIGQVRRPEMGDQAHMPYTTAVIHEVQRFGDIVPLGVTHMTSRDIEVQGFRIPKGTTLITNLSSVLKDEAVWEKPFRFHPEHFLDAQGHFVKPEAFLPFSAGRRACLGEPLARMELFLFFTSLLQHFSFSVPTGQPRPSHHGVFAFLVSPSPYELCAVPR

CC(C)COc1ncc(-c2cc(F)c(C(=O)NS(C)(=O)=O)cc2F)cc1Cl: > 50 µM

From here, focus on the item given below.
In: Enter reported IC50 observed with Cytochrome P450 2D6 (Homo sapiens, UniProt P10635) for COc1cc(C(=O)NS(C)(=O)=O)c(F)cc1-c1cnc(Oc2cc(F)ccc2F)c(Cl)c1
Out: > 50 µM

###

# ASSAY PROTOCOL: Oral bioavailability in Harlan rat at 10 mg/kg by LC-MS/MS analysis
# Assay type: ADME, organism-based
# CONDITIONS USED: in vivo
ASSAY METRIC: bioavailability

In: What value of measured bioavailability is listed for COc1cc(C(=O)NS(C)(=O)=O)c(F)cc1-c1cnc(Oc2cc(F)ccc2F)c(Cl)c1 ?
Out: > 100%

###

# TARGET OR SYSTEM: Cytochrome P450 2C9 (Homo sapiens, UniProt P11712)
The entries below are paired with their reported IC50.
Field format: number, assumed µM, no unit text.

COc1cc(C(=O)NS(C)(=O)=O)c(F)cc1-c1cnc(Oc2cc(F)ccc2F)c(Cl)c1: 49.6

From here, focus on the item given below.
In: Enter reported IC50 observed with Cytochrome P450 2C9 (Homo sapiens, UniProt P11712) for CC(C)COc1ncc(-c2cc(F)c(C(=O)NS(C)(=O)=O)cc2F)cc1Cl
Out: 34.7

###

The entries below are paired with their reported microsomal CLint at 1 µM.
# ASSAY PROTOCOL: in vitro
# CONDITIONS USED: rat, liver microsomes
Field format: number, assumed µL/min/mg, no unit text.

Past entries and their recorded results:
COc1cc(C(=O)NS(C)(=O)=O)ccc1-c1cnc(Oc2cc(Cl)cc(Cl)c2)c(C#N)c1: 15
CC(C)COc1ncc(-c2ccc(C(=O)NS(C)(=O)=O)cc2Cl)cc1Cl: 16.5
COc1cc(C(=O)NS(C)(=O)=O)ccc1-c1cnc(Oc2cc(F)ccc2F)c(Cl)c1: 33

From here, focus on the item given below.
In: What value of measured microsomal CLint at 1 µM is listed for CC(C)COc1ncc(-c2cc(F)c(C(=O)NS(C)(=O)=O)cc2F)cc1Cl ?
Out: 22

###

The entries below are paired with their reported microsomal CLint at 1 µM.
# ASSAY PROTOCOL: in vitro
# CONDITIONS USED: rat, liver microsomes
Field format: number, assumed µL/min/mg, no unit text.

CC(C)COc1ncc(-c2ccc(C(=O)NS(C)(=O)=O)cc2F)cc1Cl: 22

In: What value of measured microsomal CLint at 1 µM is listed for COc1cc(C(=O)NS(C)(=O)=O)ccc1-c1cnc(N2CCC[C@H]2C(C)C)c(Cl)c1 ?
Out: 40
